- Tested on: Target C mRNA
- PROTOCOL_NOTES: Splicing RT-qPCR gene panel, Target C canonical junction (CJ) mRNA
- Format: cell-based, human
- EXPERIMENTAL_CONDITIONS: Homo sapiens, Tables 4A/4B, read-out: Target C (IC50, decrease in CJ mRNA, gene panel)
Structures can show the parent of a compound that is named as a salt.
Give IC50 for every item shown.

Challenge: What does the record list as IC50 for Cc1cn2cc(NC(=O)c3ccc(N4CCC5(CCN5)CC4)c4cn(C)nc34)cc(F)c2n1 [Compound 301, trifluoroacetic acid salt] ?
Response given: 1 to 10 µM

Challenge: Can you handle Cc1cn2cc(NC(=O)c3ccc(N4CCNCC4)c4cn(CCCl)nc34)cc(F)c2n1 [Compound 337] next?
Response given: > 10 µM

Challenge: Cool, now CCn1cc2c(N3CCNCC3)ccc(C(=O)Nc3cc(Cl)c4nc(C)cn4c3)c2n1 [Compound 284]
Response given: 1 to 10 µM

Challenge: # repeat for Cc1cn2cc(NC(=O)c3ccc(N4CC[C@@H](N(C)C)C4)c4cn(C)nc34)cc(F)c2n1 (single isomer, unassigned) [Compound 350]
Response given: > 10 µM

Challenge: How about Cc1cn2cc(NC(=O)c3ccc(N4C[C@@H](C)N[C@@H](C)C4)c4nsnc34)cc(F)c2n1 [Compound 978] ?
Response given: 1 to 10 µM

Challenge: One more compound: CN[C@@H]1CCN(c2ccc(C(=O)Nc3cn4cc(C)nc4c(OC)n3)c3nn(CCOC)cc23)C1 [Compound 431]
Response given: 1 to 10 µM

Challenge: Also, Cc1cn2cc(NC(=O)c3ccc(N4CCNCC4)c4cn(Cc5ccc6[nH]ncc6c5)nc34)cc(F)c2n1 [Compound 340] please.
Response given: > 10 µM

Challenge: Thanks! And Cc1cc(NC(=O)c2ccc(N3CCNCC3)c3cn(C)nc23)cc2c1nc(C)n2C [Compound 321] ?
Response given: > 10 µM

Challenge: Same again, this time with Cc1cn2nc(NC(=O)c3ccc(N4CCNCC4)c4cc(C)oc34)cc2c(C)n1 [Compound 265]
Response given: > 10 µM

Challenge: Same again, this time with Cc1cn2cc(NC(=O)c3ccc(C4CCNCC4)c4cn(C)nc34)cc(F)c2n1 [Compound 208]
Response given: 0.1 to 1 µM

Challenge: Can you check Cc1cn2cc(NC(=O)c3ccc(N4CCC5(CCCN5)CC4)c4cn(C)nc34)cc(F)c2n1 [Compound 349] next?
Response given: 0.1 to 1 µM

Challenge: What about this compound? Cc1cn2cc(NC(=O)c3ccc(N4CC(C)(C)NC(C)(C)C4)c4cc(C)oc34)cc(F)c2n1 [Compound 195]
Response given: > 10 µM

Challenge: Continue with Cc1cn2cc(NC(=O)c3ccc(N4CC[C@H](NC5CC5)C4)c4cn(C)nc34)cc(F)c2n1 [Compound 372]
Response given: > 10 µM

Challenge: Cc1cn2cc(NC(=O)c3ccc(N4CCNCC4)c4cn(CCF)nc34)cc(F)c2n1 [Compound 305] ?
Response given: > 10 µM

Challenge: Same question for Cc1cn2cc(NC(=O)c3ccc(N4CCC(N(C)C)C4)c4cc(C)oc34)cc(F)c2n1 (stereo not drawn) [Compound 202] please.
Response given: > 10 µM
